- assay.system: T1, soluble recombinant human uPAR/His6 (R&D Systems, Cat. # 807-UK-100) (human, UniProt Q03405 23-303)
- T1 construct: range 1-303; Bought protein; also called soluble uPAR; hu-uPAR
- T1 sequence (Q03405 other isoform, or with tags, fused parts or gaps limits assumed, form in doubt): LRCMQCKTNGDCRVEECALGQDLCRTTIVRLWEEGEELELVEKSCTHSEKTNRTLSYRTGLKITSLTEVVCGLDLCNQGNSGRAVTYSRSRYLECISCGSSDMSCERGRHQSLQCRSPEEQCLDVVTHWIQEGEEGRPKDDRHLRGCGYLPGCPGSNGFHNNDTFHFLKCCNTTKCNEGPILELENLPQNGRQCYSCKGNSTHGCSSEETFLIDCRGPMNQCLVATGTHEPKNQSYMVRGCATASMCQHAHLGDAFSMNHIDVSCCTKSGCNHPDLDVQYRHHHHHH
- assay.comment: low resolution Biacore, mAb captured by goat anti-human, hu-uPAR 312 nM;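 note: surface plasmon resonance on a CM5 chip with goat anti-human antibody surface made by amine coupling, each mAb from supernatant captured per flow cell, kinetics fitted including mass transport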
# reported Kd; entries follow
Number in nM, nothing else.

The following binders have reported results that may help.
anti-uPAR monoclonal antibody 3.8.3 (antibody, V domains shown) VH: EVQLVESGGGLVQPGGSLRLSCAASGFTFSSYWMSWVRQAPGKGLEWVANIKQHGSEKYYVDSVKGRFTISRDNAKNSLYLQMNSLRAEDTAVYYCAREEAYYYDNSGYYWYFDLWARGTLVTVSS VL: DIQMTQSPSSVSASIGDRVTITCRASQGISSWLAWYQQKPGKTPKLLIYAASSLQSGVPSRFSGSGSGTDFTLTISSLQPEDFATYYCQQADSFPWTFGQGTKVEIK: 3.1
anti-uPAR monoclonal antibody 4.19.1 (antibody, V domains shown) VH: EVQLVESGGGLIQPGGSLRLSCAASGFSVSSNYMNWVRQAPGKGLEWVSVIYTGGSTYYADSVKGRFTISRDNSKNTLYLQMNSLRAEDTAVYYCARDTYLYGMDVWGQGTTVTVSS VL: EIVMTQSPATLSVSPGESATLSCRTSQSVSSNLAWYQQKPGQTPRLLIYGASARATGVPARFSGSGSGTEFTLTISSLQSEDFAVYYCQQYYNWPLTFGGGTKVEIK: 2.7
anti-uPAR monoclonal antibody 1.99.1 (antibody, V domains shown) VH: EVQLVESGGGLIQPGGSLRLSCAASGFTVRSNYMSWVRQAPGKGLEWISVIYTGGSTYYADSVKGRFSISRDNSKNTLYLQMNSLRAEDTAVYYCAREGAVAGFDYWGQGTLVTVSS VL: EIVMTQSPATLSVSPGERATLSCRASQSISSNLAWYQQKPGQAPRLLIYGASTRATGIPARFSGSGSGTEFTLTISSLQSEDFAVYYCQQYTNWPLTFGGGTKVEIK: 3.5
anti-uPAR monoclonal antibody 1.113.2 (antibody, V domains shown) VH: QVQLVESGGGVVQPGRSLRLSCAASGFTFSSYGMHWVRQAPGKGLEWVAVIWYDGSNKYYADSVKGRFTISRDNSKNTLYLQMNSLRAEDTAVYYCARDLAALYYYYGMHVWGQGTTVTVSS VL: EIVMTQSPATLSVSPGERATLSCRASQSFSSNLAWYQQKPGQAPRLLIYGASTRATGIPARFSGSGSGTEFTLTISSLQSEDFAVYYCQQNNNWPRTFGQGTKVEIK: 4.6
anti-uPAR monoclonal antibody 1.4.2 (antibody, V domains shown) VH: EVQLVESGGGLVQPGGSLRLSCAASGFTFSSYDMHWVRQATGKGLEWVSAIGTAGDTYYPGSVKGRFTISRENAKNSLYLQMNSLRAGDTAVYYCAREGDYSNYFTMVRGVTYGMDVWGQGTTVTVSS VL: DIQLTQSPSSLCASVGDRITITCRASQGISKYLAWFQQKPGKAPKSLIYGASSLQSGVPAKFSGSGSGTDFTLTISSLQPEDFATYYCQQYNSYPLTFGGGTKVEIK: 8.7

Requested read-out: Kd. Entry: fully human monoclonal antibody 4.18.1 (ATCC Accession Number PTA-7476) (antibody, V domains shown) VH: EVQLVESGGGLIQPGGSLRLSCAASGFTVRNNYMNWVRQAPGKGLEWVSVIYTGGSTYYADSVKGRFTISRDNSRNTLYLQMNSLRAEDTAVYYCAREGAVAGFDYWGQGTLVTVSL VL: EIVMTQFPATLSMSPGERATLSCRASQSVSSSLAWYQQTPGQAPRLLIYGASTRSTGFPARFSGIGSGTEFTLTISSLQSEDFAVYYCQQYGNWPLTFGQGTRLEIK
1.5
